Data provenance is patent US20130267494A1.

- tested-on: human norepinephrine transporter (Homo sapiens)
- Construct: expressed in transfected cells
- Sequence (P23975 whole entry): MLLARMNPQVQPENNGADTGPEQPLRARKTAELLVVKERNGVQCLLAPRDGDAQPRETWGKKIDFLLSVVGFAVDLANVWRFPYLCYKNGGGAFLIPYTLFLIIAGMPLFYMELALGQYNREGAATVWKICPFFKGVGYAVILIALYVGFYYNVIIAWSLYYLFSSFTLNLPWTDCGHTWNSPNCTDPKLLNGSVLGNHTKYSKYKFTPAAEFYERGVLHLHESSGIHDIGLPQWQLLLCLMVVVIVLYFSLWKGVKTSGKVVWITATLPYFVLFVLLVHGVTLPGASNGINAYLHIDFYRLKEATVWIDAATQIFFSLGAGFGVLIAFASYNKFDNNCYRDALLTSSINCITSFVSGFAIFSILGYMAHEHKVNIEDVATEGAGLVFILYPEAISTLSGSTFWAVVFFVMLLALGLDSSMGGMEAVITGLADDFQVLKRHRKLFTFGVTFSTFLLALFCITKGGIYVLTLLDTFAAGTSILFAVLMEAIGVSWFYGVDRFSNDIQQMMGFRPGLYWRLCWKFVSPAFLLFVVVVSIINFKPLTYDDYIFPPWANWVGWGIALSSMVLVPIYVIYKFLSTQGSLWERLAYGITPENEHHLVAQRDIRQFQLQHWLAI
- experiment-description: Inhibitory action on human norepinephrine transporter ([3H]-norepinephrine uptake in CHO cells)
- Assay type: cell-based
- condition-description: CHO, compound 1 μM; relative to inhibitory activity of 10 μM DMI as 100%; read-out: inhibitory rate (%)
- Description: Human serotonin transporter cDNA was amplified from human brain cDNA library by PCR, and inserted into pCRII-TOPO vector (manufactured by Invitrogen). […] Then, an assay buffer (126 mM NaCl, 4.95 mM KCl, 1.26 mM KH2PO4, 1.26 mM MgSO4, 10 mM HEPES, 2.32 mM CaCl2, 5.52 mM Glucose, 0.5% BSA) was prepared, the medium in the cell plate was removed and the assay buffer was added by 80 μL. […] The radioactivity was measured by TopCount (PerkinElmer). […]
Counter-ions that a name gives are not always drawn.
attribute-measured: inhibition at 1 µM (%)

[[record]]
molecule = "OC[C@H]1CNCCO[C@@H]1c1ccc(Cl)c(F)c1 [Example 302, monohydrochloride]"
readout_value = 98

[[record]]
molecule = "OCCOC[C@H]1OCCNC[C@@H]1c1ccc(Cl)c(Cl)c1 (racemic) [Example 495, monohydrochloride]"
readout_value = 105

[[record]]
molecule = "CS(=O)(=O)NC[C@@]1(c2ccc(Cl)c(Cl)c2)CCNCCO1 [Example 432, monohydrochloride]"
readout_value = 97

[[record]]
molecule = "O=C(NC[C@@H]1CNCCO[C@H]1c1ccc(Cl)c(F)c1)c1cc(-c2noc(=O)[nH]2)ccc1F [Example 357, monohydrochloride]"
readout_value = 103

[[record]]
molecule = "O=C1NCCCN1C[C@H]1OCCNC[C@H]1c1ccc(Cl)c(Cl)c1 [Example 545, monohydrochloride]"
readout_value = 108

[[record]]
molecule = "CS(=O)(=O)N[C@H]1CNCCO[C@@H]1c1ccc(Cl)c(Cl)c1 [Example 266, monohydrochloride]"
readout_value = 103

[[record]]
molecule = "O[C@H]1CNCCO[C@@H]1c1ccc(Cl)c(Cl)c1 (racemic) [Example 230, monohydrochloride]"
readout_value = 100


---

- tested-on: human serotonin transporter (Homo sapiens, UniProt P31645)
- Construct: expressed in transfected cells
- Sequence (P31645 whole entry): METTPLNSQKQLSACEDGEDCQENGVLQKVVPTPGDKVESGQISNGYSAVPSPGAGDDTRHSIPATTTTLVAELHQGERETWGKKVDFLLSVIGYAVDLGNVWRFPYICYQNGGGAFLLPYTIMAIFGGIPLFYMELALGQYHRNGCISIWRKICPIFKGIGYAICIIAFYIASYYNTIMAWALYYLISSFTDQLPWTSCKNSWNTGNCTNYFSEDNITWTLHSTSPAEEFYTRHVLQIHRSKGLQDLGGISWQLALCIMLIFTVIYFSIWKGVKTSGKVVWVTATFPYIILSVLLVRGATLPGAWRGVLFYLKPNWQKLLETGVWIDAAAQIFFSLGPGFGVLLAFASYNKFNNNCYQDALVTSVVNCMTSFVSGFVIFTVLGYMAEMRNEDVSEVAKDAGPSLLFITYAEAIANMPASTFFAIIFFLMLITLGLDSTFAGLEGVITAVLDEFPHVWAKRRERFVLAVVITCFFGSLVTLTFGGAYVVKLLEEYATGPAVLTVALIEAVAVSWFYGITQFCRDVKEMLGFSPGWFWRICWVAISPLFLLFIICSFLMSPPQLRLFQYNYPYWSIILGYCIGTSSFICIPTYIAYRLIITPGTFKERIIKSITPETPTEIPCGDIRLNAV
- experiment-description: Inhibitory action on human serotonin transporter ([3H]-5-hydroxytryptamine uptake in CHO cells)
- Format: cell-based
- condition-description: compound 1 μM; relative to inhibitory activity of 10 μM Paroxetine as 100%
Counter-ions that a name gives are not always drawn.
attribute-measured: inhibitory rate (%)

The cases that follow already have their inhibitory rate (%) on record.
[[record]]
molecule = "OCC1CNCCOC1c1ccc(Cl)c(F)c1 (stereo not drawn) [Example 440]"
readout_value = 93

[[record]]
molecule = "Cc1cc(C2OCCNCC2CO)ccc1Cl (stereo not drawn)"
readout_value = 91

[[record]]
molecule = "OCC1CNCCOC1c1ccc(Cl)c(Cl)c1 (stereo not drawn)"
readout_value = 87

[[record]]
molecule = "OC[C@H]1NCCOC[C@@H]1c1ccc(Cl)c(Cl)c1 (racemic) [Example 14, monohydrochloride]"
readout_value = 31


(A) OCC1CNCCOC1c1ccc(Cl)c(F)c1 (stereo not drawn) [Example 441]
(B) Cc1ccc(C2OCCNCC2CO)cc1Cl (stereo not drawn)
Incoming: Smaller inhibitory rate (%) value, A vs B ? Label of pick, please.
Outgoing: A
(A: 51%, B: 82%)
